Experiment: soluble on expression in E. coli; label from the status in PepcDB or PDB records

Seq String: PFEPKIVAFVCTYCTYAGADLAGTSRLNYAPNVRIVRLPCTGRISPMFILKALQKGADSVLVSGCHPGDCHFTAGNYHARRRWTVFRALLSFTGIPEERIRFSWISAAEGAKFAELINEITDDTRKLG
soluble on expression in E. coli: not soluble

Seq String: MGSDKIHHHHHHMFSSQKLKERRKKLGLSQAQTADKLGISRPSYFNWEIGKTKPNQKNLDKLAHLLKVDSAYFLSQHDIVEIYTRLNESNKTKTLKYSQYLLEQQDKERNLMKNKRYPYRVYEKLSAGTGYSYFGDGNFDTVFYDEEIDHDFASWIFGDSMEPIFLNGEVALIKQTGFDYDGAIYAIDWDGQTYIKKVYREETGLRLVSLNKKYADKFAPYDENPRIIGLIVGNFIPLEG
soluble on expression in E. coli: not soluble

Seq String: RSFLPPFNEGSFTINVSTLPGISLEESDRMGRMAEEILLSVPEVQTVGRKTGRAELDEHALGVNVSEIEVPFVLKDRSKDEVLADIREKLKVLPGVNIEIGQPISHRIDAMLSGTRANIAIKLFGPDLNRLFAIGNQIKTSVHDVKGVADLNVEQQVERPQLKIVPKREMLAKYGLTPASFAEIVNVMLAGEVVSQVYEGNRSFDLSLKVNDESRESADRIRDLIIDAGGRKIPFAYVADIVSASGPNTINRENVSRKIVVSANVAGRDLRSVVNDIQERIDADITLPEGYHIEYGGQFESEQAASRT
soluble on expression in E. coli: not soluble

====

Assay: soluble on expression in E. coli; label from the status in PepcDB or PDB records
Measurement Kind: soluble on expression in E. coli

Seq String: MGSDKIHHHHHHMYGIVIVEDEELERQALRTILTENIDGIRILGEARTGTEAVALIDSCEIDLMLVDINIPNLNGLEVIRHLRDRHADTKVIITTAYDYFETTRTAIQLKVDEYLLKPIRTQALVTTIQSCIGQLGAGRQCRELVGRIADLVEQDGYQEGVTLVRRHIEWICTQRGHVPRDLILDFAGALVALARDKGLRLPDALTQQIGQLRTMPLDAQTGYQALGTFLGVVDLLFDVTGERFGYSSNTVKKVLNYIERNLTKRITLEDAAEYANISPSYLSRMFKKTLNVNFISYLTTRRIELAKETLIGTERPITAISQELSYSDVNYFCKSFKKEVGVSPTEYRRQSRLAQGAPPPREAALATG
Measurement Kind: soluble on expression in E. coli
Result: not soluble
//
Seq String: MSDVPHLRFPEFSGEWEEHTLSEYLEFKNGLNPDAKRIGSGLPFISVMDILSEGVINYDNIRGKVNATEKEIECFGVKDGDLLFQRSSETLEDVGRANVYMDNRTAIYGGFVIRGRKIGNYDPLFFKYLLATPLARKRTCRMGAGAQHFNIGQEGLSKISLYFPSIEEQRKIAEFLSLIDERIATQNKIIEDLKKLKSAISLNVLHSDKWEQFKIKDIAQIGRGRVISSIEIGQQKSPTYPVYSSQTSNDGIMGYLDDYMFEGEYISWTTDGANAGTVFYRNGKFNCTNVCGLLKLRKEFDTHFVSLVLAEATKKYVSINLANPKLMNNTMGNIQIRLPKLEEQKRISIVFRVLQRLWTVHNSLLTEYTKQEQYLLSQMFILEHHHHHH
Measurement Kind: soluble on expression in E. coli
Result: not soluble
